Assay: Hydrophobicity by retention in analytical RP-HPLC (% MeCN at peak elution)
Assay type: physicochemical
Details: Phenomenex Aeris Peptide XB-C18 column; gradient 0→60% B during 15 min
PROPERTY LABEL: % MeCN at Elution, Aeris Peptide (% MeCN)
# number only, unit % MeCN dropped from output

Worked cases, % MeCN at Elution, Aeris Peptide given:
MOLECULE	ASSAY VALUE
NCCCC[C@H](NC(=O)CCN(Cc1ccc(F)cc1)C(=O)[C@H](CCCCN)NC(=O)CCN(Cc1ccc(F)cc1)C(=O)[C@H](CCCCN)NC(=O)COCCOCCOCCNC(=O)CCN(Cc1ccc(F)cc1)C(=O)[C@H](CCCCN)NC(=O)CCN(Cc1ccc(F)cc1)C(=O)[C@H](CCCCN)NC(=O)CCN(Cc1ccc(F)cc1)C(=O)[C@@H](N)CCCCN)C(=O)N(CCC(N)=O)Cc1ccc(F)cc1 [Compound 8, H-[X]3-sPEG3-[X]3-NH2]	39.6
NCCCC[C@H](NC(=O)CCN(Cc1ccc(F)cc1)C(=O)[C@H](CCCCN)NC(=O)CCN(Cc1ccc(F)cc1)C(=O)[C@H](CCCCN)NC(=O)CCN(Cc1ccc(F)cc1)C(=O)[C@H](CCCCN)NC(=O)CCN(Cc1ccc(F)cc1)C(=O)[C@H](CCCCN)NC(=O)CCN(Cc1ccc(F)cc1)C(=O)[C@@H](N)CCCCN)C(=O)N(CCC(N)=O)Cc1ccc(F)cc1 [Compound 1, H-[Lys-βNPhe(4-F)]6-NH2]	39.4

Exercise: Give reported % MeCN at Elution, Aeris Peptide value for NCCCC[C@H](NC(=O)CCN(Cc1ccc(F)cc1)C(=O)[C@H](CCCCN)NC(=O)CCN(Cc1ccc(F)cc1)C(=O)[C@H](CCCCN)NC(=O)COCCOCCNC(=O)CCN(Cc1ccc(F)cc1)C(=O)[C@H](CCCCN)NC(=O)CCN(Cc1ccc(F)cc1)C(=O)[C@H](CCCCN)NC(=O)CCN(Cc1ccc(F)cc1)C(=O)[C@@H](N)CCCCN)C(=O)N(CCC(N)=O)Cc1ccc(F)cc1 [Compound 7, H-[X]3-sPEG2-[X]3-NH2]
Key: 39.4
